# ELISA HSA (RSU) annotations
target: human serum albumin (human) (UniProt P02768); assay: ELISA, lysate on plate-bound antigen
Sequence (P02768 25-609 limits assumed): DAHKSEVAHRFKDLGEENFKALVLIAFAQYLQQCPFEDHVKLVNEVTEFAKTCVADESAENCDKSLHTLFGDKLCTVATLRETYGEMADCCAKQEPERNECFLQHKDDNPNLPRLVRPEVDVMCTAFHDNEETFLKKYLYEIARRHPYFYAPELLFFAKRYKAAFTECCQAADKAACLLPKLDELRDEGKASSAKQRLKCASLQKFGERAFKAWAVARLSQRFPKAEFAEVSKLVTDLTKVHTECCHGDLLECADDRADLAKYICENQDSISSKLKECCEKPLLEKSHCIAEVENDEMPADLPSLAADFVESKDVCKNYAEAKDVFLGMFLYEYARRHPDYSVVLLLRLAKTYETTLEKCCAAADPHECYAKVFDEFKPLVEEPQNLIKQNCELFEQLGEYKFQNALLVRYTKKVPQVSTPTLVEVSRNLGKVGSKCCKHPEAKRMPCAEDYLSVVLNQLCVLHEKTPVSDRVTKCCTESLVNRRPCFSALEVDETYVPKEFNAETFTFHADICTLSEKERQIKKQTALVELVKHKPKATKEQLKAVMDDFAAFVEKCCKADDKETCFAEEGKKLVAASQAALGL

binder: ISOP121BR5P1C9 (designed binder, not shown: small tags and cut ends, FN3 domain; E. coli lysate in the ELISA) LPAPKNLVVSRVTEDSARLSWIWPDKHEFFDSFLIQYQESEKVGEAIVLTVPGSERSYDLTGLKPGTEYTVSIYGVYDRKYANWSSNPLSAIFTT
ELISA HSA (RSU): 1040
//
binder: ISOP194AR9P1E9 (designed binder, not shown: small tags and cut ends, FN3 domain; E. coli lysate in the ELISA) LPAPKNLVVSRVTEDSARLSWEWLEHFDSFLIQYQESEKVGEAIVLTVPGSERSYDLTGLKPGTEYTVSIYGVYQRKVNFYSNPLSAIFTT
ELISA HSA (RSU): 1600
//
binder: ISOP121HR5P1G9 (designed binder, not shown: small tags and cut ends, FN3 domain; E. coli lysate in the ELISA) LPAPKNLVVSRVTEDSARLSWTAPDAAFDSFPINYGERATKGEAINLYVPGSERSYDLTGLKPGTEYWVLIGGVKGGLKSSPLWAWFTT
ELISA HSA (RSU): 1760
//
binder: ISOP121AR5P1H5 (designed binder, not shown: small tags and cut ends, FN3 domain; E. coli lysate in the ELISA) LPAPKNLVVSRVTEDSARLSWEDAVKHIWFDSFLIQYQESEKVGEAIVLTVPGSERSYDLTGLKPGTEYTVSIYGVWIASVWRSNPLSAIFTT
ELISA HSA (RSU): 1120
//
binder: ISOP121AR5P1B8 (designed binder, not shown: small tags and cut ends, FN3 domain; E. coli lysate in the ELISA) LPAPKNLVISRVTEDSARLSWDKRTQFAFDSFLIQYQESEKVGEAIVLTVPGSERSYDLTGLKPGTEYTVSIYGVPTWSGRTQSNPLSAIFTT
ELISA HSA (RSU): 560
//
binder: ISOP121AR5P1H2 (designed binder, not shown: small tags and cut ends, FN3 domain; E. coli lysate in the ELISA) LPAPKNLVVSRVTEDSARLSWVIDEFIPLFDSFLIQYQESEKVGEAIVLTVPGSERSYDLTGLKPGTEYTVSIYGVLAKNIGISNPLSAIFTT
ELISA HSA (RSU): 1120
//
binder: ISOP121FR5P1G11 (designed binder, not shown: small tags and cut ends, FN3 domain; E. coli lysate in the ELISA) LPAPKNLVVSRVTEDSARLSWTAPDAAFDSFSIWYLEIVAHGEAIVLTVPGSERSYDLTGLKPGTEYEVIIHGVKGCGPSGPLSAIFTT
ELISA HSA (RSU): 480
//
binder: ISOP194GR9P1E9 (designed binder, not shown: small tags and cut ends, FN3 domain; E. coli lysate in the ELISA) LPAPKNLVVSRVTEDSARLSWTAPDAAFDSFHIRYHEYDKNGEAIQLYVPGSERSYDLTGLKPGTEYGVFIWGVKGGLKSKPLWAWFTT
ELISA HSA (RSU): 1200
//
binder: ISOP194ER9P1G3 (designed binder, not shown: small tags and cut ends, FN3 domain; E. coli lysate in the ELISA) LPAPKNLIVSRVTEDSARLSWTAPDAAFDSFRIAYYETMVSGEAIVLTVPGSERSYDLTGLKPGTEYAVIIKGVKGGKPSWPLSAIFTT
ELISA HSA (RSU): 720
//
binder: ISOP121AR5P1F2 (designed binder, not shown: small tags and cut ends, FN3 domain; E. coli lysate in the ELISA) LPAPKNLVISRVTEDSARLSWGWSELIATHFDSFLIQYQESEKVGEAIVLTVPGSERSYDLTGLKPGTEYTVSIYGVYNRKVNFYSNPLSAIFTT
ELISA HSA (RSU): 960
//
binder: ISOP194BR9P1A5 (designed binder, not shown: small tags and cut ends, FN3 domain; E. coli lysate in the ELISA) LPAPKNLVVSRVTEDSARLSWFNADEEYFDSFLIQYQESEKVGEAIVLTVPGSERSYDLTGLKPGTEYTVSIYGVYQRGYHNWFSNPLSAIFTT
ELISA HSA (RSU): 1280
//
binder: ISOP194BR9P1H4 (designed binder, not shown: small tags and cut ends, FN3 domain; E. coli lysate in the ELISA) LPAPKNLVVSRVTEDSACLSWTTAFHNEYFDSFLIQYQESEKVGEAIVLTVPGSERSYDLTGLKPGTEYTVSIYGVYSRPKAEFTSNPLSAIFTT
ELISA HSA (RSU): 3840
//
binder: ISOP121BR5P1C5 (designed binder, not shown: small tags and cut ends, FN3 domain; E. coli lysate in the ELISA) LPAPKNLVVSRVTEDSARLSWFRLRIVQTFDSFLIQYQESEKVGEAIVLTVPGSERSYDLTGLKPGTEYTVSIYGVITVVELLQQSNPLSAIFTT
ELISA HSA (RSU): 720
//
binder: ISOP194HR9P1D11 (designed binder, not shown: small tags and cut ends, FN3 domain; E. coli lysate in the ELISA) LPAPKNLVVSRVTEDSARLSWTAPDAAFDSFSILYGELIGDGEAIVLTVPGSERSYDLTGLKPGTEYTVYIFGVKGGRYSRPLSAIFTT
ELISA HSA (RSU): 1680
//
binder: ISOP121FR5P1G1 (designed binder, not shown: small tags and cut ends, FN3 domain; E. coli lysate in the ELISA) LPAPKNLVVSRVTEDSARLSWTAPDAAFDSFWIHYTEAPVHGEAIVLTVPGSERSYDLTGLKPGTEYTVVIWGVKGGTWSSPLSAIFTT
ELISA HSA (RSU): 400
//
binder: ISOP121AR5P1A10 (designed binder, not shown: small tags and cut ends, FN3 domain; E. coli lysate in the ELISA) LPAPKNLVVSRVTEDSARLSWPDWSNSEYFDSFLIQYQESEKVGEAIVLTVPGSERSYDLTGLKPGTEYTVSIYGVYARHRLFVSNPLSAIFTT
ELISA HSA (RSU): 560
//
binder: ISOP121FR5P1H9 (designed binder, not shown: small tags and cut ends, FN3 domain; E. coli lysate in the ELISA) LPAPKNLVVSRVTEDSARLSWTAPDAAFDSFSILYGETAPIGEAIVLTVPGSERSYDLTGLKPGTEYVVYIQGVKGGNYSQPLSAIFTT
ELISA HSA (RSU): 880
